Assay: Terminal half-life of X4P-001
Conditions: in vivo
recorded.endpoint: half-life

Data request: Look up half-life of `NCCCCN(Cc1nc2ccccc2[nH]1)[C@H]1CCCc2cccnc21` and report it.
Data returned: 12 to 24 h

====

Assay: Solubility of X4P-001
Assay type: physicochemical
Conditions: aqueous buffer; pH range 3.0 to 8.0; read-out: Solubility
recorded.endpoint: solubility

Data request: Give the reported value of solubility for this record: `NCCCCN(Cc1nc2ccccc2[nH]1)[C@H]1CCCc2cccnc21`
Data returned: > 100 mg/mL
